Where do these numbers come from? They come from PubChem BioAssay.

test: viability of HCT116 without oncogenic beta-catenin – human colon tumor cells, pilot screen (AID 823); conditions: HCT116 beta-catenin knockout viability, CellTiter-Glo, 60 h; at 10 µM; active compounds read low;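 further: 0% = wells killed by 20 µM Hyamine and 100% = untreated DMSO cell wells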
Results filed as inconclusive are left out.
property: viability (%)
Give just the number in %; leave the unit off.

Prompt: What viability value was documented for this compound, CCOC(=O)N1CCC(c2cc(=O)n3[nH]cc(C(=O)OC)c3n2)CC1 ?
Completion: 88.8

Prompt: Given the compound O=C(Cn1c(=O)oc2cc(S(=O)(=O)N3CCCC3)ccc21)NC1CCCc2ccccc21 (configuration not stated) , what is its reported viability?
Completion: 97

Prompt: Bench note: what viability did CCOC(=O)C1CCN(C(=O)CN(c2ccc(OC)cc2)S(=O)(=O)c2c(C)noc2C)CC1 show?
Completion: 98.5

Prompt: Endpoint output: viability of Cc1oc2c(O)c(O)ccc2c(=O)c1-c1ccccc1 . Value?
Completion: 95.1

Prompt: Need viability, item COc1cccc(CNC(=O)c2cc3ccccn3n2)c1
Completion: 106

Prompt: Entry under review: COc1ccccc1NC(=O)CSc1ncn[nH]1 . Reported viability?
Completion: 98.2

Prompt: Given Cc1cccc(N2CCN(C(=O)c3cc4ccccc4oc3=O)CC2)c1C , state its recorded viability.
Completion: 88.5

Prompt: Reported viability, compound Nc1cccc(-n2nncc2-c2ccc(Cl)cc2)c1 : ____
Completion: 99.3

Prompt: For Cc1c(C#N)c2ncnc(-c3ccccc3)c2n1-c1ccccc1 , what is its reported viability?
Completion: 91

Prompt: Reported viability, compound COc1ccccc1N1CCN(CC(O)c2ccc3cc[nH]c3c2)CC1 (configuration not stated) : ____
Completion: 60.7

Prompt: State the recorded viability for this entry: CCOC(=O)N1CCC(NC(=O)c2cc3ccccn3n2)CC1
Completion: 97.5

Prompt: Name the reported viability value associated with the compound CC(CCC(=O)Nc1nncs1)C(=O)O (configuration not stated)
Completion: 108

Prompt: // lookup viability for COc1ccc(N(CC(=O)Nc2ccc3c(c2)OCO3)S(=O)(=O)c2ccccc2)c(OC)c1
Completion: 71.8

Prompt: Give the measured viability of Oc1ccc(-c2n[nH]c(=S)n2Cc2ccccc2)cc1 .
Completion: 101

Prompt: Using the record for Oc1ccc2ccccc2c1CN1CCN(c2ccccc2F)CC1 , report its viability.
Completion: 95.4

Prompt: For COc1ccc(C2(C(=O)NCCCN(C)C)CCOCC2)cc1 , what is its reported viability?
Completion: 98.3

Prompt: What measured viability goes with CCOC(=O)c1sc2nc(NC(=O)c3cccs3)sc2c1C ?
Completion: 92.5

Prompt: Which viability is listed for COCCCNC(=O)CC1Oc2ccccc2NC1=O (configuration not stated) ?
Completion: 97.6

Prompt: Can you share its viability? I mean this compound: Cn1c(SCC(=O)c2cc3ccccc3o2)nnc1-c1ccccc1
Completion: 97.9

Prompt: Can you look up the measured viability of Cc1ccc(CNC(=O)C2CCCN(S(=O)(=O)c3cnc[nH]3)C2)cc1 (configuration not stated) for me?
Completion: 109

Prompt: // returns reported viability for input O=c1c2ccccc2nc2n1CCN2
Completion: 101

Prompt: Item under review: CC(=O)Nc1ccc(S(=O)(=O)Nc2nc3ccccc3nc2Sc2nncn2C)cc1 . Reported viability?
Completion: 98.1

Prompt: Returns the measured viability for the input compound. Input: Cc1ccc(C(=O)Nc2c(C(=O)N3CCOCC3)cnn2-c2ccccc2)cc1
Completion: 103

Prompt: Form field: reported viability of CC(C)CCSc1nnc(Cn2c(=O)sc3ccccc32)n1C
Completion: 79.8

Prompt: # lookup: viability of O=S(=O)(NC1CCCCC1)c1ccc(Br)cc1
Completion: 89.3

Prompt: Which viability is reported for this compound? CC1=C(C(=O)N2CCOCC2)C(c2cccs2)NC(=O)N1 (configuration not stated)
Completion: 99.8

Prompt: Fill in: viability of COc1ccc(NC(=O)C2CCCCN2S(=O)(=O)c2ccc(F)cc2)cc1 (configuration not stated) is ___
Completion: 83.5

Prompt: Dear colleague, I am looking for the recorded viability of the following compound: COc1ccc(C2c3c(oc4ccccc4c3=O)C(=O)N2c2ccc(C)cn2)cc1OC (configuration not stated)
Completion: 89

Prompt: Item under review: Cc1ccccc1CSc1nnc(C)c(=O)[nH]1 . Reported viability?
Completion: 98.8

Prompt: Quick check: viability of COc1cccc(C2CC(=O)Nc3cc4c(cc32)OCCO4)c1OC(C)C (configuration not stated) ?
Completion: 65.7

Prompt: Sample O=c1oc2c3c4c(cc2s1)CCCN4CCC3 — what was its viability?
Completion: 101

Prompt: Tell me the measured viability of CCn1c(=O)cc(OCC(=O)N2CCc3ccccc32)c2ccccc21 , please.
Completion: 96.1

Prompt: Recorded viability for COc1ccc(S(=O)(=O)N2CCC(C(=O)N3CCOCC3)CC2)cc1OC , please?
Completion: 91.5

Prompt: Tell me the measured viability of COc1ccc(Cc2nnc(NC(=O)c3c(-c4ccccc4)noc3C)s2)cc1 , please.
Completion: 88.3

Prompt: I'd like to know its viability. The compound in question is CCOC(=O)N1CCC(N2C(=O)c3ccccc3C2Nc2ccccc2C)CC1 (configuration not stated)
Completion: 88.2

Prompt: I would be grateful if you could share the reported viability for COc1cccc(NC(=O)CSc2nnc(Cc3cccn3C)n2-c2ccc(F)cc2)c1 .
Completion: 88.9

Prompt: Reported viability for CN(C(=O)c1ccccc1C(=O)c1ccccc1)C1CCS(=O)(=O)C1 (configuration not stated) : what is it?
Completion: 96.6

Prompt: Dear colleague, I am looking for the recorded viability of the following compound: COc1ccc(N2C(=O)CC(c3ccc(OC(C)C)cc3)C2=O)cc1 (configuration not stated)
Completion: 97.9

Prompt: // query viability value for entry CN(C)C(=O)Nc1cnc2ccccc2c1
Completion: 104

Prompt: Can you share its viability? I mean this compound: Cc1ccc(-n2ncc3c(N4CCCC(C)C4)ncnc32)c(C)c1 (configuration not stated)
Completion: 80.5

Prompt: Give the measured viability of CCOC(=O)C1=C(C)N(C)C(=O)NC1c1cccc(O)c1 (configuration not stated) .
Completion: 99.2

Prompt: Using the record for NC(=O)C1(N2CCCCC2)CCN(C(=O)CCCn2c(=O)[nH]c3ccsc3c2=O)CC1 , report its viability.
Completion: 93.5

Prompt: What value of viability has been reported for the following compound? COCCCN1C(=O)C(=O)/C(=C(/O)c2ccc(OCC(C)C)cc2C)C1c1cccnc1 (configuration not stated)
Completion: 106

Prompt: Query (compound): COc1ccc(-c2nc(CS(=O)CC(=O)NCC3CCCO3)c(C)o2)cc1 (configuration not stated) ; field requested: viability
Completion: 97.8

Prompt: Given the entry CC1(C)Oc2ccc3ccc(=O)oc3c2C(N2CCCCC2)C1O (configuration not stated) , report its measured viability.
Completion: 101

Prompt: What does the record list as viability for CCOC(=O)c1ccc2ncc(C(=O)OCC)c(NCCCN3CCOCC3)c2c1 ?
Completion: 81.2

Prompt: What does the record list as viability for CCOC(=O)C(CC)(CCC(=O)O)c1csc(N)n1 (configuration not stated) ?
Completion: 96.8
